- System: Hepatitis B virus
- Experiment notes: Antiviral activity against lamivudine-adenofir-resistant HBV with reverse transcriptase V173L/L180M/A181V mutant
- Type: functional, organism-based

>  <Compound>
C[C@H](Cn1cnc2c(N)ncnc21)OCP(=O)(O)O [TENOFOVIR ANHYDROUS]

>  <Target>
Hepatitis B virus

>  <EC50>
42 µM

$$$$
>  <Compound>
CC(C)(C)C(=O)OCOP(=O)(COCCn1cnc2c(N)ncnc21)OCOC(=O)C(C)(C)C [ADEFOVIR DIPIVOXIL]

>  <Target>
Hepatitis B virus

>  <EC50>
48 µM

$$$$
>  <Compound>
Nc1ccn([C@@H]2CS[C@H](CO)O2)c(=O)n1 [LAMIVUDINE]

>  <Target>
Hepatitis B virus

>  <EC50>
100 µM

$$$$
>  <Compound>
C=C1[C@H](CO)[C@@H](O)C[C@@H]1n1cnc2c(=O)[nH]c(N)nc21.O [ENTECAVIR]

>  <Target>
Hepatitis B virus

>  <EC50>
2.75 µM

$$$$
>  <Compound>
Nc1cc(OCCOCP(=O)(O)O)nc(N)n1

>  <Target>
Hepatitis B virus

>  <EC50>
24 µM

$$$$
